study-system: mCTLA-4-Fc (R&D Systems) (mouse, UniProt P09793 36-162)
Sequence (P09793 whole entry, the tested form may be a part): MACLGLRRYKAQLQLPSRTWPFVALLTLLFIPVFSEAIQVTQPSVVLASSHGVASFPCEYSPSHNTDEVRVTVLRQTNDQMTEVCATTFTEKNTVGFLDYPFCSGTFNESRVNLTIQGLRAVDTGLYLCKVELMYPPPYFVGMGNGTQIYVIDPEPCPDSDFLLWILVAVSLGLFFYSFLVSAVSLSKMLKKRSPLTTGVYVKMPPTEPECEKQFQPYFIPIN
assay-details: SPR, Fc fusion captured via anti-human IgG Fc
reported-endpoint: Kd (nM)
Express the result in nM but write the number alone.

>>> observed_value("hNGAL mutein S109.5-L23 (designed binder) QDSTSDLIPAPPLSKVPLQQNFQDNQFHGKWYVVGLAGNRILRDDQHPMNMYATIYELKEDKSYDVTSVIFPHKKCEYTTATFVPGSQPGEFTLGNIKSYGGKTSYLVRVVSTNYNQHATVFFKLAGDNAEFFAITIYGRTKELASELKENFIRFSKSLGLPENHIVFPVPIDQCIDGSAWSHPQF")
19
>>> observed_value("hNGAL mutein S109.5-L04 (designed binder) QDSTSDLIPAPPLSKVPLQQNFQDNQFHGKWYVVGLAGNRILRDDRHPMNMYATIYELKEDKSYNVTSVIFPHKKCEYTIATFVPGSQPGEFTLGNIKSYGDKTSYLVRVVSTNYNQHATVFFKLAEDNAEFFAITIYGRTKELASELKENFIRFSKSLGLPENHIVFPVPIDQCIDGSAWSHPQF")
42

Here's the next entry for you.
Any idea what its Kd is? The binder is hNGAL mutein S107.4-C16 (designed binder) QDSTSDLIPAPPLSKVPLQQNFQDNQFHGKWYVVGLAGNRILRDDQHPMNMYATIYELKEDKSYNVTSVIFPHKKCEYTIATFVPGSQPGEFTLGNIKSYGDKTSYLVRVVSTNYNQHAMVFFELVEDNAGFFAITIYGRTKELASELKENFIRFSKSLGLPENHIVFPVPIDQCIDGSAWSHPQF 275
